- experimental-target: furin, P09958;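 also: purified furin at 1:10 enzyme:substrate in 50 mM HEPES pH 7.5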
- Sequence (P09958 whole entry): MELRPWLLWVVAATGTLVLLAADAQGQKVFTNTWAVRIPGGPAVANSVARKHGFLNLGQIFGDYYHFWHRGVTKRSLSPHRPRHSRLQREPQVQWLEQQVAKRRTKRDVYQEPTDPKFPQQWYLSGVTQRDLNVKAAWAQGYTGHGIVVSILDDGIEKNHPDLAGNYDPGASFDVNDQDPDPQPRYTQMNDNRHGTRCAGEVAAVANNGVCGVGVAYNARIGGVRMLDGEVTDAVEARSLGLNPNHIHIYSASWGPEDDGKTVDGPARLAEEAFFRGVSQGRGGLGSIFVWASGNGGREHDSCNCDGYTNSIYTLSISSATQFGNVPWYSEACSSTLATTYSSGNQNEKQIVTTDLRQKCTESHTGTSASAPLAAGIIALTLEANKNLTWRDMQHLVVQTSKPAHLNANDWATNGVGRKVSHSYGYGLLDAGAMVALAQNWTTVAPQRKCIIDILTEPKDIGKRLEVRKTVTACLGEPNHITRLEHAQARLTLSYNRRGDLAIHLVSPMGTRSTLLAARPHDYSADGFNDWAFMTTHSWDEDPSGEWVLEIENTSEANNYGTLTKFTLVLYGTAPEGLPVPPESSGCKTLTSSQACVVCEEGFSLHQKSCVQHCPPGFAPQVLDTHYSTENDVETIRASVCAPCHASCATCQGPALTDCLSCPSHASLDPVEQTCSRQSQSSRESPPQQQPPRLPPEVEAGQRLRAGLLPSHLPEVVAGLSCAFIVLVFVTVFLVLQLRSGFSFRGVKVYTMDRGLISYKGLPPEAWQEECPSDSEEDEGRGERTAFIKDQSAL
- assay-procedure: furin cleavage Z-score vs untreated control; higher = more cleavage, active = 3.5 or more, inactive = 1 or less, 8 variable residues between constant flanks
- applied-conditions: 30 min
The other results are listed elsewhere or left out. How many sequences the whole screen found active is unknown.
measurement-name: furin cleavage Z-score
// response body must contain only the number

Inquiry: Give the measured furin cleavage Z-score for CAHNSRKKREAGNASASA [FS-1340]
Reply text: 9.48

Inquiry: Give the measured furin cleavage Z-score for CARPRRELSLAGNASASA [FS-2501]
Reply text: 8.79

Inquiry: Give the measured furin cleavage Z-score for CATVDFSLDPAGNASASA [HC891]
Reply text: -1.01

Inquiry: Give the measured furin cleavage Z-score for CARRTRDLDPAGNASASA [FS-2520]
Reply text: 7.24
